- Tgt: telomerase enzyme (Homo sapiens, UniProt O14746)
- Construct: host or cells: HEKn (human primary epidermal keratinocytes)
- Sequence (O14746 whole entry): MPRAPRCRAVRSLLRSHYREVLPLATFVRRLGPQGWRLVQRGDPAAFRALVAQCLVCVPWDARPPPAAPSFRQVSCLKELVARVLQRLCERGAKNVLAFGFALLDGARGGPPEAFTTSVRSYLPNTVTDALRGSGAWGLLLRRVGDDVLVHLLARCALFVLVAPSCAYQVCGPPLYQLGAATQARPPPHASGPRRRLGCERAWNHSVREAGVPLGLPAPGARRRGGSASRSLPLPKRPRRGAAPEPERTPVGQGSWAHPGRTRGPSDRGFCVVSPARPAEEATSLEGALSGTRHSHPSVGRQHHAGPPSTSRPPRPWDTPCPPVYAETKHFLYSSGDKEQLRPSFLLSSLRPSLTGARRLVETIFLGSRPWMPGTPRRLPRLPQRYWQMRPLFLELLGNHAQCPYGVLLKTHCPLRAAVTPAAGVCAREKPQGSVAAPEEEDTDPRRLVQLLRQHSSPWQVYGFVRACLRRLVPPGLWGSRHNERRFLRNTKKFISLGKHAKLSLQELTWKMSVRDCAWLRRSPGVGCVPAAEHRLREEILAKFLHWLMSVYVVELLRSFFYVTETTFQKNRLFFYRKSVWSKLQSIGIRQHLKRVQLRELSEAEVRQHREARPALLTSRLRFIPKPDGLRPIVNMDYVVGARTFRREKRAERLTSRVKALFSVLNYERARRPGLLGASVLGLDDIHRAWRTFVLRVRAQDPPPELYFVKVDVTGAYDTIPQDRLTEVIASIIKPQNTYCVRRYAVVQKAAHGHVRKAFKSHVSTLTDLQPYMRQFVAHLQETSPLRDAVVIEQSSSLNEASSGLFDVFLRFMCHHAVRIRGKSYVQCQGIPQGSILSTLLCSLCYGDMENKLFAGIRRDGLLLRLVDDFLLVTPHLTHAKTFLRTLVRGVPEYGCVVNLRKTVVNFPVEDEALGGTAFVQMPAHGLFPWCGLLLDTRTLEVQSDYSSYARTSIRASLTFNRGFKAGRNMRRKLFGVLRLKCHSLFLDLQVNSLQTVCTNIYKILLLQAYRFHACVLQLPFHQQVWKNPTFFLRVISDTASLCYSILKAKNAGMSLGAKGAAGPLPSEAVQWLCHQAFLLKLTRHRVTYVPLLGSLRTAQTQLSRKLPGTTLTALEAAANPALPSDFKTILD
- Test Description: Telomerase activation, TELOTAGGG PCR ELISAPLUS kit, HEKn cells
- Type: cell-based
- Details: 30 nM, 24-hour incubation
Property Name: Fold increase over negative control (DMSO) (fold)

CC1(C)C(=O)CC[C@]23C[C@]24CC[C@]2(C)[C@@H]([C@@]5(C)CC[C@@H](C(C)(C)O)O5)[C@@H](O)C[C@@]2(CO)C4C[C@H](O)C13 (stereo partly drawn)	2.36
CC(C)(O)[C@@H]1CC[C@](C)([C@H]2[C@@H](O)C[C@@]3(C)C4C[C@H](O)[C@@H](C(C)(C)O)[C@](C)(CCC(=O)O)C4=CC[C@]23C)O1 (stereo partly drawn)	1.93

1: CC1(C)C(=O)CC[C@]2(C)C3=CC[C@]4(C)[C@@H]([C@@]5(C)CC[C@@H](C(C)(C)O)O5)[C@@H](O)C[C@@]4(C)C3C[C@H](O)C12 (stereo partly drawn)
2: CC1(C)C(=O)C[C@H](O)[C@]23C[C@]24CC[C@]2(C)[C@@H]([C@@]5(C)CC[C@@H](C(C)(C)O)O5)[C@@H](O)C[C@@]2(C)C4C[C@H](O)C13 (stereo partly drawn)
Between 1 and 2 , which one shows the larger Fold increase over negative control (DMSO) value? Return value: the label identifying the chosen record.
2
(2: 1.73 fold, 1: 1.18 fold)

----------
- Tgt: telomerase enzyme (Homo sapiens, UniProt O14746)
- Construct: host or cells: HEKn (human primary epidermal keratinocytes)
- Test Description: Telomerase activation, TELOTAGGG PCR ELISAPLUS kit, HEKn cells
- Assay type: cell-based
- Details: 300 nM, 24-hour incubation
Property Name: Fold increase over negative control (DMSO) (fold)

CC(C)(O)[C@@H]1CC[C@](C)([C@H]2[C@@H](O)C[C@@]3(C)C4C[C@H](O)C5C(C)(C)[C@@H](O)CC[C@]5(C)C4=C[C@@H](O)[C@]23C)O1 (stereo partly shown)	0.53

1: CC(C)(O)[C@@H]1CC[C@](C)([C@H]2[C@@H](O)C[C@@]3(C)C4C[C@H](O)C5C(C)(C)[C@@H](O)CC[C@@]56C[C@@]46C[C@@H](O)[C@]23C)O1 (stereo partly shown)
2: CC1(C)C(=O)CC[C@]23C[C@]24CC[C@]2(C)[C@@H]([C@@]5(C)CC[C@@H](C(C)(C)O)O5)[C@@H](O)C[C@@]2(CO)C4C[C@H](O)C13 (stereo partly shown)
3: CC1(C)C(=O)C[C@H](O)[C@]23C[C@]24CC[C@]2(C)[C@@H]([C@@]5(C)CC[C@@H](C(C)(C)O)O5)[C@@H](O)C[C@@]2(C)C4C[C@H](O)C13 (stereo partly shown)
Arrange items by their Fold increase over negative control (DMSO) values in increasing order. Rank them, then answer with their labels in that order.
3, 2, 1

----------
- Tgt: telomerase enzyme (Homo sapiens)
- Construct: host or cells: HEKn (human primary epidermal keratinocytes)
- Test Description: Telomerase activation, TELOTAGGG PCR ELISAPLUS kit, HEKn cells
- Format: cell-based
- Details: 2 nM, 24-hour incubation
Property Name: Fold increase over negative control (DMSO) (fold)

Consider the following illustrative entries.
CC(C)(O)[C@@H]1CC[C@](C)([C@H]2[C@@H](O)C[C@@]3(C)C4C[C@H](O)C5C(C)(C)[C@@H](O)CC[C@]5(C)C4=C[C@@H](O)[C@]23C)O1 (stereo partly drawn)	2.53
CC(C)(O)[C@@H]1CC[C@](C)([C@H]2[C@@H](O)C[C@@]3(C)C4C[C@H](O)C5C(C)(C)[C@@H](O)CC[C@@]56C[C@@]46C[C@@H](O)[C@]23C)O1 (stereo partly drawn)	2.13

I: CC1(C)C(=O)CC[C@]23C[C@]24CC[C@]2(C)[C@@H]([C@@]5(C)CC[C@@H](C(C)(C)O)O5)[C@@H](O)C[C@@]2(C)C4C[C@H](O)C13 (stereo partly drawn)
II: CC1(C)C(=O)CC[C@]2(C)C3=CC[C@]4(C)[C@@H]([C@@]5(C)CC[C@@H](C(C)(C)O)O5)[C@@H](O)C[C@@]4(C)C3C[C@H](O)C12 (stereo partly drawn)
III: C=C(C)[C@@H]1[C@@H](O)CC2C(=CC[C@]3(C)[C@@H]([C@@]4(C)CC[C@@H](C(C)(C)O)O4)[C@@H](O)C[C@@]23C)[C@@]1(C)CCC(=O)O (stereo partly drawn)
Sort entries by Fold increase over negative control (DMSO) from minimum to maximum value. Return value: ordered labels per request.
II, I, III
(II: 1.43 fold, I: 2.14 fold, III: 5.23 fold)

----------
- Tgt: telomerase enzyme (Homo sapiens)
- Construct: host or cells: HEKn (human primary epidermal keratinocytes)
- Test Description: Telomerase activation, TELOTAGGG PCR ELISAPLUS kit, HEKn cells
- Format: cell-based
- Details: 10 nM, 24-hour incubation
- Procedure: Telomerase activation tests were performed on selected molecules as follows; For culturing HEKn (Human Primer Epidermal Keratinocyte, ATCC; PCS-200-010) cells, the cell medium containing the components given in Table 2 is prepared and the cells are grown in the Dermal Cell Basal medium (PCS-200-030) supplemented with components in 5% CO2 environment at 37° C. […]
Property Name: Fold increase over negative control (DMSO) (fold)

C=C(C)[C@@H]1[C@@H](O)CC2C(=CC[C@]3(C)[C@@H]([C@@]4(C)CC[C@@H](C(C)(C)O)O4)[C@@H](O)C[C@@]23C)[C@@]1(C)CCC(=O)O (some centres unmarked)	6.04

I: CC1(C)C(=O)CC[C@]23C[C@]24CC[C@]2(C)[C@@H]([C@@]5(C)CC[C@@H](C(C)(C)O)O5)[C@@H](O)C[C@@]2(C)C4C[C@H](O)C13 (some centres unmarked)
II: CC(C)(O)[C@@H]1CC[C@](C)([C@H]2[C@@H](O)C[C@@]3(C)C4C[C@H](O)C5C(C)(C)[C@@H](O)CC[C@]5(C)C4=CC(=O)[C@]23C)O1 (some centres unmarked)
Compare the recorded Fold increase over negative control (DMSO) of I and II ; state which is larger. Output the label that corresponds to your choice.
I

P: CC(C)(O)[C@@H]1CC[C@](C)([C@H]2[C@@H](O)C[C@@]3(C)C4C[C@H](O)C5C(C)(C)[C@@H](O)CC[C@]5(C)C4=C[C@@H](O)[C@]23C)O1 (some centres unmarked)
Q: CC1(C)C(=O)CC[C@]2(C)C3=CC[C@]4(C)[C@@H]([C@@]5(C)CC[C@@H](C(C)(C)O)O5)[C@@H](O)C[C@@]4(C)C3C[C@H](O)C12 (some centres unmarked)
R: CC(C)(O)[C@@H]1CC[C@](C)([C@H]2[C@@H](O)C[C@@]3(C)C4C[C@H](O)C5C(C)(C)[C@@H](O)CC[C@@]56C[C@@]46C[C@H](O)[C@]23C)O1 (some centres unmarked)
S: CC(C)(O)[C@@H]1CC[C@](C)([C@H]2[C@@H](O)C[C@@]3(C)C4C[C@H](O)[C@@H](C(C)(C)O)[C@](C)(CCC(=O)O)C4=CC[C@]23C)O1 (some centres unmarked)
Form: Sort by [Fold increase over negative control (DMSO)] Order [ ascending ] Returns: the labels listed in the requested order.
Q, P, R, S
(Q: 1.04 fold, P: 1.62 fold, R: 6.38 fold, S: 11.32 fold)

----------
- Tgt: telomerase enzyme (Homo sapiens)
- Construct: host or cells: HEKn (human primary epidermal keratinocytes)
- Test Description: Telomerase activation, TELOTAGGG PCR ELISAPLUS kit, HEKn cells
- Type: cell-based
- Details: 2 nM, 24-hour incubation
Property Name: Fold increase over negative control (DMSO) (fold)

CC1(C)OC(=O)CC[C@]23C[C@]24CC[C@]2(C)[C@@H]([C@@]5(C)CC[C@@H](C(C)(C)O)O5)[C@@H](O)C[C@@]2(C)C4C[C@H](O)C13 (some centres unmarked)	9.35
CC(C)(O)[C@@H]1CC[C@](C)([C@H]2[C@@H](O)C[C@@]3(C)C4C[C@H](O)C5C(C)(C)[C@@H](O)CC[C@]5(C)C4=CC(=O)[C@]23C)O1 (some centres unmarked)	1.33
CC(C)(O)[C@@H]1CC[C@](C)([C@H]2[C@@H](O)C[C@@]3(C)C4C[C@H](O)[C@@H](C(C)(C)O)[C@](C)(CCC(=O)O)C4=CC[C@]23C)O1 (some centres unmarked)	1.24

P: CC(C)(O)[C@@H]1CC[C@](C)([C@H]2[C@@H](O)C[C@@]3(C)C4C[C@H](O)C5C(C)(C)[C@@H](O)CC[C@]5(C)C4=C[C@H](O)[C@]23C)O1 (some centres unmarked)
Q: CC(C)(O)[C@@H]1CC[C@](C)([C@H]2[C@@H](O)C[C@@]3(C)C4C[C@H](O)C5C(C)(C)[C@@H](O)CC[C@@]56C[C@@]46C[C@H](O)[C@]23C)O1 (some centres unmarked)
Which value of Fold increase over negative control (DMSO) is smaller, the one for P or the one for Q ? Could you answer with the label of the item you picked?
P

All figures here come from patent US20210369738A1.
